experimental-protocol: Cytotoxicity against human HEK cells at 1.25 to 80 uM after 24 hrs by ATP-based luminescent proliferation assay
Assay type: cell-based
observation-type: Activity

1. COC(=O)N[C@H]1[C@@H](C)O[C@@H](O[C@H]2C/C=C(\C)[C@@H]3C=C[C@@H]4[C@@H](O[C@H]5C[C@@H](O[C@H]6C[C@@H](O)[C@@H](O)[C@H](C)O6)[C@@H](O)[C@H](C)O5)[C@@H](C)C[C@H](C)[C@H]4[C@]3(C)C(=O)C3=C(O)[C@@]4(C[C@@H](C)C(C)=C[C@H]4/C=C/2C)OC3=O)C[C@]1(C)[N+](=O)[O-]: Non-toxic
2. COC(=O)N[C@H]1[C@@H](C)O[C@@H](O[C@H]2C/C=C(\C)[C@@H]3C=C[C@@H]4[C@@H](O[C@H]5C[C@@H](O[C@H]6C[C@@H](O)[C@@H](O[C@@H]7C[C@@H](O)[C@@H](OC)[C@H](C)O7)[C@H](C)O6)[C@@H](O)[C@H](C)O5)[C@@H](C)C[C@H](C)[C@H]4[C@]3(C)C(=O)C3=C(O)[C@@]4(C[C@@H](C)C(C)=C[C@H]4/C=C/2C)OC3=O)C[C@]1(C)[N+](=O)[O-]: Non-toxic
3. COC(=O)N[C@H]1[C@@H](C)O[C@@H](O[C@H]2C/C=C(\C)[C@@H]3C=C[C@@H]4[C@@H](O[C@H]5C[C@@H](O[C@H]6C[C@@H](O)[C@@H](O[C@@H]7C[C@@H](O)[C@@H](OC)[C@H](C)O7)[C@H](C)O6)[C@@H](O)[C@H](C)O5)[C@@H](C)C[C@H](C)[C@H]4[C@]3(C)C(=O)C3=C(O)[C@@]4(C[C@@H](C)C(CO)=C[C@H]4/C=C/2C)OC3=O)C[C@]1(C)O: Non-toxic
4. COC(=O)N[C@H]1[C@@H](C)O[C@@H](O[C@H]2C/C=C(\C)[C@@H]3C=C[C@@H]4[C@@H](O[C@H]5C[C@@H](O[C@H]6C[C@@H](O)[C@@H](O[C@@H]7C[C@@H](O)[C@@H](OC)[C@H](C)O7)[C@H](C)O6)[C@@H](O)[C@H](C)O5)[C@@H](C)C[C@H](C)[C@H]4[C@]3(C)C(=O)C3=C(O)[C@@]4(C[C@@H](C)C(CO)=C[C@H]4/C=C/2C)OC3=O)C[C@]1(C)[N+](=O)[O-]: Non-toxic
